- System: 786-0 renal
- ASSAY OVERVIEW: NCI tumour cell line growth inhibition, 48 h; in the data active means GI50 below about 0.43 µM; inactive means the rest
Give one outcome, nothing more. List: active, inactive

Test call for this compound, please: COc1ccc(-n2cc(-c3cc(OC)c(OC)c(OC)c3)[nH]c2=S)cc1Cl inactive

What do you get for CCOC(=O)c1ccc(N(C=O)CCC(=O)CCl)cc1 ? active

What do you get for C[C@@H](Oc1cc(-n2cnc3ccc(OCC4CCN(C)CC4)cc32)sc1C(N)=O)c1ccccc1Cl ? active

What do you get for Nc1nc(-c2ccc(Cl)cc2)cc(-c2ccc(Cl)cc2)c1-c1nc2ccccc2o1 ? inactive

What do you get for O=C1/C(=C/c2ccc(Cl)cc2)CN(C(=O)CCN2CCC(=NO)CC2)C/C1=C\c1ccc(Cl)cc1 ? inactive

What do you get for Clc1ccc2nc(Cl)c3ccccc3c2c1 ? inactive

What do you get for CNC(=O)c1cc(Oc2ccc3nc(N[C@@H]4CCCC[C@H]4O)sc3c2)ccn1 ? inactive

What do you get for Cc1ccc(-c2cc(-c3ccc(C)cc3)nc(N3CCN(CCNc4ccnc5cc(Cl)ccc45)CC3)n2)cc1 ? inactive

What do you get for O=C(Cc1csc2nc(-c3ccc(Br)cc3)cn12)N/N=C/c1ccc(Cl)cc1Cl ? inactive

What do you get for COc1cc(C(=O)O/N=C(\N)Cc2cccc3ccccc23)cc(OC)c1OC ? inactive

What do you get for O=C(c1ccco1)c1nc2cc(C(F)(F)F)ccc2[n+]([O-])c1C(F)(F)F ? inactive

What do you get for O=C(CCN1CCCC1)Nc1ccc2c(NCCc3ccccc3)c3ccccc3nc2c1 ? inactive
